- system tested: Beta-lactamase (Escherichia coli K-12) (UniProt P00811)
- Sequence (P00811 whole entry): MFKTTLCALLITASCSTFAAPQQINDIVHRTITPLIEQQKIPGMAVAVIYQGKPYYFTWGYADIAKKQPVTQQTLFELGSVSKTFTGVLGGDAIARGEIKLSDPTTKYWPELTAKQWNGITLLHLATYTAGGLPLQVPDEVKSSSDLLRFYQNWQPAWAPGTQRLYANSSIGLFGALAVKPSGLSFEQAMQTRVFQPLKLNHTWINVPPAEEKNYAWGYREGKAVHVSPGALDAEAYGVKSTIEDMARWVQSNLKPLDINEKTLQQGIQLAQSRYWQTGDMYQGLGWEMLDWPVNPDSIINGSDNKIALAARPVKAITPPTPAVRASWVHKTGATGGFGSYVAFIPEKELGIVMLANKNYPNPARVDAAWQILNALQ
Define the label as yes (1) when MIC is strictly less than 2 µg/mL and as no (0) in all remaining cases.

Please review the entries below; each comes with its answer.
# compound, label
records = [
    ("CC1(C)[C@H](C(=O)O)N2C(=O)[C@H](CS)[C@H]2S1(=O)=O", "yes (1)"),
    ("C[C@]1(Cn2ccnn2)[C@H](C(=O)[O-])N2C(=O)C[C@H]2S1(=O)=O.[Na+] [TAZOBACTAM SODIUM]", "yes (1)"),
    ("CC1(C)S[C@@H]2[C@@H](CO)C(=O)N2[C@H]1C(=O)O", "no (0)"),
    ("CC1(C)[C@H](C(=O)O)N2C(=O)[C@H](CO)[C@H]2S1(=O)=O", "yes (1)"),
    ("CC1(C)S[C@@H]2[C@H](CO)C(=O)N2[C@H]1C(=O)O", "no (0)"),
    ("CC1(C)[C@H](C(=O)O)N2C(=O)[C@@H](CO)[C@H]2S1(=O)=O", "yes (1)"),
]

Consider the record given below.
Does the reported MIC of the following compound sit strictly below 2 µg/mL? `CC1(C)[C@H](C(=O)O)N2C(=O)[C@@H](CS)[C@H]2S1(=O)=O` yes (1)

###

- system tested: Beta-lactamase TEM (Escherichia coli)
- Sequence (P62593 whole entry): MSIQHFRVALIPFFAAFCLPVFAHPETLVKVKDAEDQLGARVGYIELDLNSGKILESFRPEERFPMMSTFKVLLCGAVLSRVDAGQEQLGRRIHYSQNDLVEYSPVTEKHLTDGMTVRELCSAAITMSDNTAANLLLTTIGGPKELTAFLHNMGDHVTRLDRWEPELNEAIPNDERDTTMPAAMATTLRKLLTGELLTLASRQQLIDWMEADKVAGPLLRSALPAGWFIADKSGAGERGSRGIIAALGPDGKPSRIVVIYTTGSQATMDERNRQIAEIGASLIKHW
- method description: Beta-Lactamase inhibitory activity against representative class A (TEM-1) serine enzyme from Escherichia coli ATCC 35218 in presence of Piperacillin
Reported MIC is given for each of the following molecules.
Numbers only; they are read as µg/mL.

# molecule, unit tag, MIC
data = [
    ("CC1(C)[C@H](C(=O)O)N2C(=O)[C@@H](CO)[C@H]2S1(=O)=O", "µg/mL", 1),
    ("C[C@]1(Cn2ccnn2)[C@H](C(=O)[O-])N2C(=O)C[C@H]2S1(=O)=O.[Na+] [TAZOBACTAM SODIUM]", "µg/mL", 1),
]

State the recorded MIC for this entry: `CC1(C)[C@H](C(=O)O)N2C(=O)[C@@H](CS)[C@H]2S1(=O)=O` 8

Quick one: `CC1(C)[C@H](C(=O)O)N2C(=O)[C@H](CO)[C@H]2S1(=O)=O` 8

###

- system tested: Beta-lactamase L1 (Stenotrophomonas maltophilia)
- Sequence (P52700 whole entry): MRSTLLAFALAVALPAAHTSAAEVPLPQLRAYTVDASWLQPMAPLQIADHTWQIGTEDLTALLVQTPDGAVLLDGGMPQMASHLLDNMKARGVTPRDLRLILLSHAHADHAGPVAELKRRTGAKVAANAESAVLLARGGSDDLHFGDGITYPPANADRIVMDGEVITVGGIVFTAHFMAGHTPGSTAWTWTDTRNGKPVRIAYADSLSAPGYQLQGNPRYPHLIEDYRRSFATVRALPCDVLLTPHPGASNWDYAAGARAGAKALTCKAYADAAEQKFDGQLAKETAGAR
- method description: Beta-Lactamase Inhibition of metallo-beta-lactamase representative class B (L1) enzyme
result type: pIC50
When answering, recall that pIC50 equals minus log10 of the concentration in mol/L, and write that number alone.

# smiles, system tested, pIC50
data = [
    ("CC1(C)S[C@@H]2[C@H](CS)C(=O)N2[C@H]1C(=O)O", "Beta-lactamase L1 (Stenotrophomonas maltophilia)", 4.49),
    ("O=C(O)c1cccc(C(=O)O)n1", "Beta-lactamase L1 (Stenotrophomonas maltophilia)", 5.11),
    ("CC1(C)[C@H](C(=O)O)N2C(=O)[C@H](CS)[C@H]2S1(=O)=O", "Beta-lactamase L1 (Stenotrophomonas maltophilia)", 6.52),
    ("CC1(C)S[C@@H]2[C@@H](CS)C(=O)N2[C@H]1C(=O)O", "Beta-lactamase L1 (Stenotrophomonas maltophilia)", 4.96),
    ("CC1(C)[C@H](C(=O)O)N2C(=O)[C@@H](CO)[C@H]2S1(=O)=O", "Beta-lactamase L1 (Stenotrophomonas maltophilia)", 4.14),
]

State the recorded pIC50 for this entry: `CC1(C)S[C@@H]2[C@H](S)C(=O)N2[C@H]1C(=O)O` 4.38

Quick one: `CC1(C)[C@H](C(=O)O)N2C(=O)[C@@H](CS)[C@H]2S1(=O)=O` 7.00

Quick one: `CC1(C)S[C@@H]2[C@@H](S)C(=O)N2[C@H]1C(=O)O` 4.43

Quick one: `CC1(C)[C@H](C(=O)O)N2C(=O)[C@H](S)[C@H]2S1(=O)=O` 5.12

###

- system tested: Beta-lactamase TEM (Escherichia coli)
- method description: Beta-Lactamase inhibitory activity against representative class A (TEM-1) serine enzyme from Escherichia coli ATCC 35218 in presence of Piperacillin
result type: MIC

# smiles, MIC
rows = [
    ("CC1(C)S[C@@H]2[C@@H](CS)C(=O)N2[C@H]1C(=O)O", "> 128 µg/mL"),
    ("CC1(C)S[C@@H]2[C@@H](S)C(=O)N2[C@H]1C(=O)O", "> 128 µg/mL"),
    ("CC1(C)S[C@@H]2[C@H](CS)C(=O)N2[C@H]1C(=O)O", "> 128 µg/mL"),
    ("CC1(C)S[C@@H]2[C@H](S)C(=O)N2[C@H]1C(=O)O", "> 128 µg/mL"),
]

State the recorded MIC for this entry: `CC1(C)[C@H](C(=O)O)N2C(=O)[C@H](CS)[C@H]2S1(=O)=O` 32 µg/mL

###

- system tested: Metallo-beta-lactamase type 2 (Bacillus cereus)
- Sequence (P14488 whole entry): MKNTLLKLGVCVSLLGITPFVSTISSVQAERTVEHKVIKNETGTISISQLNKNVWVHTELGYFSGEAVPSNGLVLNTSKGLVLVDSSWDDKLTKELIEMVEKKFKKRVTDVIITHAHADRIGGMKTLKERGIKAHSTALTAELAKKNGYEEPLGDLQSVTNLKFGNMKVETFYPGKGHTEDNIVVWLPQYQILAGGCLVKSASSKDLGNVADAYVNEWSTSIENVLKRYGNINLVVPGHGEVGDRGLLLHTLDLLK
- method description: Inhibition of class B (BCII) metallo-beta-lactamase representative enzyme
Reported pIC50 is given for each of the following molecules.
When answering, recall that pIC50 equals minus log10 of the concentration in mol/L, and write that number alone.

For orientation, consider the following solved cases.
# smiles, system tested, pIC50
data = [
    ("CC1(C)S[C@@H]2[C@@H](S)C(=O)N2[C@H]1C(=O)O", "Metallo-beta-lactamase type 2 (Bacillus cereus)", 4.76),
    ("O=C(O)c1cccc(C(=O)O)n1", "Metallo-beta-lactamase type 2 (Bacillus cereus)", 4.66),
    ("CC1(C)[C@H](C(=O)O)N2C(=O)[C@H](CS)[C@H]2S1(=O)=O", "Metallo-beta-lactamase type 2 (Bacillus cereus)", 4.92),
    ("CC1(C)[C@H](C(=O)O)N2C(=O)[C@@H](CS)[C@H]2S1(=O)=O", "Metallo-beta-lactamase type 2 (Bacillus cereus)", 5.85),
    ("CC1(C)[C@H](C(=O)O)N2C(=O)[C@H](S)[C@H]2S1(=O)=O", "Metallo-beta-lactamase type 2 (Bacillus cereus)", 3.97),
]

State the recorded pIC50 for this entry: `CC1(C)S[C@@H]2[C@H](S)C(=O)N2[C@H]1C(=O)O` 4.75

Quick one: `CC1(C)S[C@@H]2[C@H](CS)C(=O)N2[C@H]1C(=O)O` 5.54

Quick one: `CC1(C)S[C@@H]2[C@@H](CS)C(=O)N2[C@H]1C(=O)O` 5.77

###

Reported pIC50 is given for each of the following compounds.
- system tested: Beta-lactamase TEM (Escherichia coli)
- method description: Beta-Lactamase inhibitory activity against representative class A (TEM-1) serine enzyme
When answering, recall that pIC50 equals minus log10 of the concentration in mol/L, and write that number alone.

# smiles, readout value
measured = [
    ("CC1(C)S[C@@H]2[C@H](CS)C(=O)N2[C@H]1C(=O)O", 3.22),
    ("CC1(C)S[C@@H]2[C@H](CO)C(=O)N2[C@H]1C(=O)O", 3.12),
    ("CC1(C)S[C@@H]2[C@@H](S)C(=O)N2[C@H]1C(=O)O", 3.01),
    ("CC1(C)[C@H](C(=O)O)N2C(=O)[C@H](S)[C@H]2S1(=O)=O", 4.16),
]

State the recorded pIC50 for this entry: `CC1(C)S[C@@H]2[C@@H](CO)C(=O)N2[C@H]1C(=O)O` 3.56

###

- system tested: Beta-lactamase TEM (Escherichia coli)
- method description: Beta-Lactamase inhibitory activity against representative class A (TEM-1) serine enzyme from Escherichia coli ATCC 35218 in presence of Piperacillin
result type: MIC

For orientation, consider the following solved cases.
# smiles, system tested, readout value
data = [
    ("CC1(C)[C@H](C(=O)O)N2C(=O)[C@H](S)[C@H]2S1(=O)=O", "Beta-lactamase TEM (Escherichia coli)", "> 128 µg/mL"),
    ("CC1(C)S[C@@H]2[C@H](CO)C(=O)N2[C@H]1C(=O)O", "Beta-lactamase TEM (Escherichia coli)", "> 128 µg/mL"),
]

Now look at this one.
Request: MIC, test system Beta-lactamase TEM (Escherichia coli), entry `CC1(C)S[C@@H]2[C@@H](CO)C(=O)N2[C@H]1C(=O)O` > 128 µg/mL
